Value source: PubChem BioAssay

Items are presented alongside their recorded composite z-score.
Test system: Human papillomavirus type 1a protein E7 (residues 44-93)
test_description: HPV1a E7 fragment binders on microarrays, primary screen, biochemical, small-molecule microarray, residues 44-93, 635 nm fluorescence (AID 1108);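 also: E7 fragment applied at 1 µg/mL in TBST for 1 h at 4 C; score combines spot fluorescence with its signal to noise ratio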
experimental_conditions: small-molecule microarray binding, fluorescence 635 nm; higher = more signal
value_type: composite z-score

INSERT INTO results (structure, value_type, quantitative_readout) VALUES
  ('COc1cc(COC(C)=O)ccc1OC(C)=O', 'composite z-score', 0.793),
  ('NC(=O)NCC#Cc1ccc2c(c1)[C@]1(C(=O)N2)[C@H](c2ccc(O)cc2)N2[C@H](c3ccccc3)[C@H](c3ccccc3)OC(=O)[C@H]2[C@@H]1C(=O)O', 'composite z-score', -0.0303),
  ('COCCOC(=O)N1C(=O)[C@@]2(c3cc(C#CC4(O)CCCCCC4)ccc31)[C@H](c1ccccc1OCCO)N1[C@H](c3ccccc3)[C@H](c3ccccc3)OC(=O)[C@H]1[C@@H]2C(=O)N1CCN(c2ncccn2)CC1', 'composite z-score', 0.0525);
